Measured kon, listed per entry for reference.
Biological target: T1, human 5T4-His protein (human, UniProt Q13641 32-355)
T1 construct: also called recombinant 5T4 protein (human 5T4-his tag); human 5T4 protein; not shown: His tag
T1 sequence (looked up): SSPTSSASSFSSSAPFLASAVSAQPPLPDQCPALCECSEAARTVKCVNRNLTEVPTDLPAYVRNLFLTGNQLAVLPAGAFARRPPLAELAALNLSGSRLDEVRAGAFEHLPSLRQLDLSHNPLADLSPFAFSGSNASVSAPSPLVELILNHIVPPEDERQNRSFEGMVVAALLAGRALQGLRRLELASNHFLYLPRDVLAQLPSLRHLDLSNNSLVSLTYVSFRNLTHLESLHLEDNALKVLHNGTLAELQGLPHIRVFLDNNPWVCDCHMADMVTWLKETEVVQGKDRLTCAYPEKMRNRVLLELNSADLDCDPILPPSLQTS
Assay: SPR Biacore, Protein A capture
Give the number; M⁻¹ s⁻¹ is assumed, so skip it.

Answered examples (2):
- BINDER: "353H11 chimeric antibody (antibody, V domains shown, chimeric mAb) VH: QVQLQQPGTELVKPGASVKLSCKASDYTFTSYWMHWVKQRPEQGLEWIGNINPSNGNTNYNEKFKNKATLTVDKSSSTAYMQLSSLTFEDSAVYYCARGGWDFDYWGQGTTLTVSS VL: QVVLTQSPAIMSASPGEKVTMTCSASSSVRYMHWYQQRSGTSPKRWIYDTSKLTSGVPARFSGSGSGTSYSLTISSMEAEDAATYYCQLWTSKPPWTFGGGTKLEIR"
  kon, M⁻¹ s⁻¹: 401000
- BINDER: "85B10 chimeric antibody (antibody, V domains shown, chimeric mAb) VH: QVQLQQSGPELVKPGASVKISCKASGYTFTAYYVNWVKQSHGKSLEWIGDINPNNGGTNYNQKFKGKATLTVDMSSSTAYMELRSLTSEDSAVYYCAKEGPPGAMDYWGQGTSVTVSS VL: SIVLTQTPKFLLVSAGDRVPITCKASQSVSNNVAWYQQKPGQSPKLLIYYASNPYTGVPDRFTGSGYGTDFTFTITTVQAEDLAVYFCQQVYSSPFTFGGGTKLEMK"
  kon, M⁻¹ s⁻¹: 158000

Now take the following binder into account.
Query string: Supply measured kon of 14G12 chimeric antibody (antibody, V domains shown, chimeric mAb) VH: EVQLQQSGPELVKPGASVKISCKASGYAFSSSWMNWVKQRPGKGLEWIGRIYREDGHTNYNGKFKGKATLTADKSSTTAYMQLTSLTSEDSAVYFCANGGAMDYWGQGTSVTVSS VL: DIQMTQSTSSLSASLGDRVTISCRASQDISNYLNWYQQKPDGTVKLLIYYTSRLHSGVPSRFSGSGSGTDYSLTISNLEQEDIATYFCQQDNTLPWTFGGGTKLEIK in your reply.
Result string: 538000
